# assay.summary: Distribution coefficient, log D of compound at pH 7.5
# Type: physicochemical
# assay.conditions: octanol/water
result.type: logD
The answer should be a number; do not append a unit.

Task item: Name the reported logD value associated with the molecule `C[C@H](c1ccnc(Nc2nc3ccc(-c4cc(N(C)C)ncn4)cc3[nH]2)c1)N1CCN(C(=O)CC(F)(F)F)CC1`
Reply: 2.5

---

# assay.summary: Efflux ratio of apparent permeability across basolateral to apical membrane over apical to basolateral membrane in human Caco2 cells
# Format: ADME, cell-based
# assay.conditions: Caco-2
result.type: efflux ratio
The answer should be a number; do not append a unit.

Task item: Name the reported efflux ratio value associated with the compound `C[C@H](c1ccnc(Nc2nc3ccc(-c4cnn(CC5CC5)c4)cc3[nH]2)c1)N1CCN(C(=O)CC(F)(F)F)CC1`
Reply: 7.5

Task item: Name the reported efflux ratio value associated with the compound `Cc1noc(-c2ccc3nc(Nc4cc(CN5CCN(C(=O)CC6CC6)CC5)ccn4)[nH]c3c2)n1`
Reply: 2.4

Task item: Name the reported efflux ratio value associated with the compound `O=C(NCC1CC1)c1ccc2nc(Nc3cc(CN4CCN(C(=O)CC(F)(F)F)CC4)ccn3)[nH]c2c1`
Reply: 40
